Target: ALCAT1 (Homo sapiens (Human), UniProt Q6UWP7)
Sequence (Q6UWP7 whole entry): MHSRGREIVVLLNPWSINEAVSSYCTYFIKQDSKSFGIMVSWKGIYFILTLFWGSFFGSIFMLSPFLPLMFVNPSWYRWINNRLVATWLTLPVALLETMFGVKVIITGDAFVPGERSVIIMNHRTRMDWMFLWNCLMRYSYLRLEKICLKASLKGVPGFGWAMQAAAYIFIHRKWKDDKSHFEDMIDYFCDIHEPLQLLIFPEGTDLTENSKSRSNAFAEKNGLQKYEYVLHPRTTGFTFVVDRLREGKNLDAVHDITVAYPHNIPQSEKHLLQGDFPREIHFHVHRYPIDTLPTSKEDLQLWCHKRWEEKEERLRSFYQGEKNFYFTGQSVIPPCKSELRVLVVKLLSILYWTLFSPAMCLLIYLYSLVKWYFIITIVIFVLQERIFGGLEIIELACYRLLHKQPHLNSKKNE
Test: In vitro acyltransferase assay for ALCAT1 inhibitors
Format: biochemical
Details: 1 μM compound; in vitro enzymatic assay
Value Kind: inhibition at 1 µM (%)

Example results:
* O=C(Nc1cc(-c2nnc(-c3ccco3)o2)ccc1F)c1ccccc1OCC(F)F [Compound 314] | 95
* O=C(Nc1cc(-c2nnc(-c3ccco3)o2)ccc1F)c1cc(Cl)ccc1OCCF [Compound 318] | 98
* Cc1ccc(OCC(F)F)c(C(=O)Nc2cc(-c3nnc(-c4ccco4)o3)ccc2F)c1 [Compound 323] | 96
* O=C(Nc1cccc(-c2nnc(-c3ccco3)o2)n1)c1ccccc1F [Compound 53] | 47

(P) O=C(Nc1cccc(-c2nnc(-c3ccco3)o2)c1)c1c(F)cccc1F [Compound 143]
(Q) COC(=O)c1ccc(OC)c(C(=O)Nc2cccc(-c3nnc(-c4ccco4)o3)c2)c1 [Compound 115]
(R) COc1ccc(OC(F)(F)F)cc1C(=O)Nc1cc(-c2nnc(-c3ccco3)o2)ccc1F [Compound 405]
(S) COc1ccc(NC(=O)c2ccccc2F)cc1-c1nnc(-c2ccco2)o1 [Compound 136]
Order these by inhibition at 1 µM, descending, and give the full ranking. Sort the labels as requested; that list is your answer.
R, Q, S, P
(R: 98%, Q: 51%, S: 28%, P: 13%)
